Molecular target: Luciferin 4-monooxygenase (Photinus pyralis) (UniProt P08659)
Experiment: Primary firefly luciferase (FLuc) qHTS assay for identification of artifact compounds. (AID 1845220); note: nearly all actives have a fitted effect of over 60% in size;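 for activity change, negative = inhibition: plate controls were DMSO vehicle for no effect and no enzyme for full effect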
Conditions: purified firefly luciferase, luminescence, 5 min; series mostly up to 54.1 µM
Description: PI: Alexander Tropsha Ph.D. UNC Eshelman School of Pharmacy University of North Carolina, Chapel Hill, North Carolina Hits from high-throughput screening (HTS) of chemical libraries are often false positives due to their interference with the assay detection technology. […] Using these curated datasets, we developed and validated several Quantitative Structure-Interference Relationship (QSIR) models to predict nuisance behavior. […] 6; Detection; Luminescence, ViewLux microplate reader. […]
Calls of active or inactive are those of the source. Calls come from the whole dose curve; as a rule, active = well fitted inhibition curve with a large enough effect; inconclusive = small, poorly fitted or top-dose-only effect; inactive = flat fitted curve, though single readings scatter.
VALUE KIND: activity change, negative = inhibition

Illustrative cases are given below, each with its answer.
OCc1ccc(O[C@@H]2O[C@H](CO)[C@@H](O)[C@H](O)[C@H]2O)cc1
inactive
C/C=C1\[C@H](OC2OC(COC3OC(CO)C(O)C(O)C3O)C(O)C(O)C2O)OC=C(C(=O)OC)[C@H]1CC(=O)OCCc1ccc(O)cc1 (stereo partly drawn)
inactive
CC1(C)CC[C@]2(C(=O)O[C@@H]3O[C@H](CO)[C@@H](O)[C@H](O)[C@H]3O)CC[C@]3(C)C(=CCC4[C@@]5(C)CC[C@H](O[C@@H]6O[C@H](C(=O)O)[C@@H](O)[C@H](O)[C@H]6O)C(C)(C)C5CC[C@]43C)C2C1 (stereo partly drawn)
0.101% [at 11.6 µM] (inactive)
O=C1NC(Cc2c[nH]c3ccccc23)C(=O)NC1Cc1cnc[nH]1 (stereo not drawn)
inactive
C=C1C[C@@]23CCC4[C@@](C)(CCC[C@@]4(C)C(=O)OC)C2CC[C@@H]1C3 (stereo partly drawn)
inactive

Now, please, on to the next compound.
[Q] I have this compound here, "O=C(Nc1ccn[nH]1)c1c(F)cccc1F" , and I need its recorded activity change, negative = inhibition.
[A] inactive

Reference source for all entries: PubChem BioAssay (NCATS)
